Source listed as paper PMC8222333.

- SUBJECT OF TEST: d-enCas12a (Acidaminococcus sp., UniProt U2UMQ6 1-1307, E174R;S542R;K548R;D908A;E993A;D1235A)
- PROCEDURE DETAILS: Spec-seq (native PAGE EMSA with sequencing of bound and unbound); 25 mM Tris-HCl pH 7.4, 150 mM KCl, 5 mM MgCl2, 10% glycerol, 1 mM DTT, 40 ng/uL salmon sperm DNA; 400 nM Cas12a, 480 nM crRNA, 50 nM library, 37 C 1 h; native PAGE at room temperature; high values mean tight binding;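 further: relative affinity from the bound to unbound sequence frequency ratio in Spec-seq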
- PARTICULARS: protein: recombinant

BINDER | binding signal [lnKA]
CCAA (dsDNA) DNA 1: GCTATCTAGTGCTCAGTACGCACTGCCAAAGGAAACTTCTGGCAGGACCAGGTCATGAGATCGGAAGAGCACACGTCTGAACTCCAGTCA DNA 2: TGACTGGAGTTCAGACGTGTGCTCTTCCGATCTCATGACCTGGTCCTGCCAGAAGTTTCCTTTGGCAGTGCGTACTGAGCACTAGATAGC RNA: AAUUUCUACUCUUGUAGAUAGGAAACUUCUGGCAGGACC | -5.83
CGGT (dsDNA) DNA 1: GCTATCTAGTGCTCAGTACGCACTGCGGTAGGAAACTTCTGGCAGGACCAGGTCATGAGATCGGAAGAGCACACGTCTGAACTCCAGTCA DNA 2: TGACTGGAGTTCAGACGTGTGCTCTTCCGATCTCATGACCTGGTCCTGCCAGAAGTTTCCTACCGCAGTGCGTACTGAGCACTAGATAGC RNA: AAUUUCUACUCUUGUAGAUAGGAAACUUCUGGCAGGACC | -5.84
